Data origin: paper PMC9093745

biological target: K. rhizophila ADP-Glc PPase (Kocuria rhizophila, UniProt B2GHR6); construct: recombinant in E. coli BL21 (DE3), His-tagged, IMAC purified; actinobacterial enzyme is a GlgC tetramer; assay: activation curve, malachite green Pi release coupled to pyrophosphatase; conditions: allosteric activator (Vmax 4-fold); Glc-1P and ATP as substrates, Mg2+, pH 8.0, 37°C; read-out: A0.5
Sequence (B2GHR6 whole entry): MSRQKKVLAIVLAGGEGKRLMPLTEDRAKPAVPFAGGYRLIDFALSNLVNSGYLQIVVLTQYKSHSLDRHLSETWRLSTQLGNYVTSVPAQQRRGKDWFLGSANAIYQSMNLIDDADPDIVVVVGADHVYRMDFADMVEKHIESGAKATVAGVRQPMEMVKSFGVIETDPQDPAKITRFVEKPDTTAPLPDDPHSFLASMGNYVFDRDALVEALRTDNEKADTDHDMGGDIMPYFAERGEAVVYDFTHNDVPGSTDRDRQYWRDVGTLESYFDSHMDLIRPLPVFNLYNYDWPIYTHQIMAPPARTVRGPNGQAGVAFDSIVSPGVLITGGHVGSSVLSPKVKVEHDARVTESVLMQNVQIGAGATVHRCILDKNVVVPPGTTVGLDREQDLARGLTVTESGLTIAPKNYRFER
MEASUREMENT_NAME: pEC50
A value of pEC50 is the negative decimal logarithm of a concentration given in moles per litre.

Exam item: Dear colleague, I am looking for the recorded pEC50 of the following molecule: N[C@H]1C(O)O[C@H](COP(=O)(O)O)[C@@H](O)[C@@H]1O (stereo partly shown)
Marked response: 4.10

###

target: S. coelicolor ADP-Glc PPase (Streptomyces coelicolor); construct: recombinant in E. coli BL21 (DE3), His-tagged, IMAC purified; actinobacterial enzyme is a GlgC tetramer; test: activation curve, malachite green Pi release coupled to pyrophosphatase; conditions: allosteric activator (4-fold); Glc-1P and ATP as substrates, Mg2+, pH 8.0, 37°C; read-out: A0.5
Sequence (P72394 whole entry): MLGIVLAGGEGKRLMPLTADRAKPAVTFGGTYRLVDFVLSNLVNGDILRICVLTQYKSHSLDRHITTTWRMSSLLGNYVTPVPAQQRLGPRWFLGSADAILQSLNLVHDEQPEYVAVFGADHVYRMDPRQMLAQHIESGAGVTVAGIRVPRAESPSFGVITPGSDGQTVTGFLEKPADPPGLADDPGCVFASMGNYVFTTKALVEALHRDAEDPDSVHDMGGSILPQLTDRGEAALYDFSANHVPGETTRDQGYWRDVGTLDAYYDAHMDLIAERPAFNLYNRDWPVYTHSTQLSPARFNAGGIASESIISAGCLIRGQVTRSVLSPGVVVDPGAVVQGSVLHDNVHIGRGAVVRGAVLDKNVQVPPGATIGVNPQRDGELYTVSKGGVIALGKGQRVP
MEASUREMENT_NAME: EC50 (mM)
Dear colleague, please return just the value in mM, with no unit written.

Exam item: Lookup: EC50 / S. coelicolor ADP-Glc PPase (Streptomyces coelicolor) / N[C@H]1C(O)O[C@H](COP(=O)(O)O)[C@@H](O)[C@@H]1O (stereo partly shown) [GlcN-6P]
Marked response: 3.55
